Listing of entries alongside the reported inhibition.
- assayed-system: Kallikrein-5 (Homo sapiens) (UniProt Q9Y337)
- Sequence (Q9Y337 67-293 limits assumed): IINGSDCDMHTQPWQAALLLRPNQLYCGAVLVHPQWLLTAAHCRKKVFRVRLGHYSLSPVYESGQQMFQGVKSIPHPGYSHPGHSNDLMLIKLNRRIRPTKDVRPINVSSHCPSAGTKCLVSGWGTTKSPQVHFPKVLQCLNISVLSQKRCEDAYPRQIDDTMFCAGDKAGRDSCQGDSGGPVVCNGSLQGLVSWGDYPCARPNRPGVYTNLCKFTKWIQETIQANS
- experiment-description: inhibition of kallikrein 5 (hK5) activity – biochemical, 1536-well, primary screen (AID 873);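 also: 0% = enzyme controls without compound and 100% = no-enzyme blanks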
- applied-conditions: recombinant hK5, fluorogenic AMC substrate cleavage; at 5 µM; active compounds read high
About 1,300 (0.62%) of roughly 210,000 compounds were called active. Shown is part of a subset that was picked to be rich in actives.
Entry rule: numbers only, all in %.

| compound | inhibition (%) |
| --- | --- |
| Cc1coc2cc3oc(=O)c(CCC(=O)O)c(C)c3cc12 | -1.04 |
| CS(=O)(=O)n1nc(-c2ccco2)nc1N | -7.61 |
| CNc1ccc([N+](=O)[O-])cc1C(=O)O | -11.4 |
| COc1cccc(NC(=O)c2ccccc2SC)c1 | -2.44 |
| COc1ccc(N=C(C)c2sc3ccccc3c2O)cc1 | 2.85 |
| OC(CNCc1ccc2c(c1)OCO2)COc1ccccc1 (configuration not stated) | 2.06 |

QUERY: If you can, please state the reported inhibition value of Cc1nc(N)[nH]c(=O)c1Oc1cccc(C(F)(F)F)c1 .
RESULT: -0.74

QUERY: Do the same for COc1ccc(OC)c(NC(=O)N[C@H](Cc2ccccc2)C(=O)NN)c1 please
RESULT: -9.7

QUERY: Do the same for Cn1c2c(c(=O)n(C)c1=O)C1c3ccccc3OCC1C(C)(C)O2 (configuration not stated) please
RESULT: -2.4

QUERY: Do the same for O=C(Nc1ccc(Br)cn1)c1ccc([N+](=O)[O-])o1 please
RESULT: -4.1

QUERY: Do the same for Cc1onc(NC(=O)c2ccc([N+](=O)[O-])o2)c1Br please
RESULT: 47.1

QUERY: Do the same for Cc1ccc(Oc2nc(-c3ccccn3)nc3ccccc23)cc1 please
RESULT: -11.3
